Measured IC50 of individual entries
# measured.on: Cholesteryl ester transfer protein (Homo sapiens)
# Sequence (P11597 whole entry): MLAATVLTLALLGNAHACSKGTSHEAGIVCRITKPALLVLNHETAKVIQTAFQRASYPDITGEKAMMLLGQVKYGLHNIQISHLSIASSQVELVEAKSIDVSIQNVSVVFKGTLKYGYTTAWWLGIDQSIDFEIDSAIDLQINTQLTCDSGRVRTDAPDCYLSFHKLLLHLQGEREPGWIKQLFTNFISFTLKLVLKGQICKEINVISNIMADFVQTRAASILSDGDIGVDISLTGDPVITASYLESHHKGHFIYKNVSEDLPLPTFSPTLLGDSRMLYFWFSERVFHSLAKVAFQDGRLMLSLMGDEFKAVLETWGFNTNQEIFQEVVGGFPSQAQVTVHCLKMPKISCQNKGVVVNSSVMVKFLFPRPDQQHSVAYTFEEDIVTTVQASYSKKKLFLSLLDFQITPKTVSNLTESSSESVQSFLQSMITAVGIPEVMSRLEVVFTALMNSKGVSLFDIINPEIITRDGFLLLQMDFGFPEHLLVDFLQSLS
experimental.endpoint: IC50

molecule: COc1c(C(O)CC(C)C)ccc2c1C(=O)Oc1cc(C)cc(OCCC(C)C)c1O2 (racemic)
measured.on: Cholesteryl ester transfer protein (Homo sapiens)
value.observed: 2000 nM
//
molecule: COc1c([C@@H](O)CC(C)C)ccc2c1C(=O)Oc1cc(C)cc(OS(=O)(=O)c3c(F)cc(F)cc3F)c1O2
measured.on: Cholesteryl ester transfer protein (Homo sapiens)
value.observed: 6000 nM
//
molecule: COc1c([C@@H](O)CC(C)C)ccc2c1C(=O)Oc1cc(C)cc(OC(=O)N3CCCC3)c1O2
measured.on: Cholesteryl ester transfer protein (Homo sapiens)
value.observed: 800 nM
//
molecule: COc1c([C@@H](O)CC(C)C)ccc2c1C(=O)Oc1cc(C)cc(OC(=O)C3(C)CC4C=CC3C4)c1O2 (stereo partly specified)
measured.on: Cholesteryl ester transfer protein (Homo sapiens)
value.observed: 200 nM
//
molecule: COc1c([C@@H](O)CC(C)(C)C)ccc2c1C(=O)Oc1c(Cl)c(C)c(C)c(OC(=O)C3(C)C4CCC3CC4)c1O2 (stereo partly specified)
measured.on: Cholesteryl ester transfer protein (Homo sapiens)
value.observed: 30 nM
//
molecule: COc1c([C@@H](O)CC(C)C)ccc2c1C(=O)Oc1cc(C)cc(OC(=O)C3CCCC3)c1O2
measured.on: Cholesteryl ester transfer protein (Homo sapiens)
value.observed: 600 nM

----------
# measured.on: Cholesteryl ester transfer protein (Homo sapiens, UniProt P11597)
# Sequence (P11597 whole entry): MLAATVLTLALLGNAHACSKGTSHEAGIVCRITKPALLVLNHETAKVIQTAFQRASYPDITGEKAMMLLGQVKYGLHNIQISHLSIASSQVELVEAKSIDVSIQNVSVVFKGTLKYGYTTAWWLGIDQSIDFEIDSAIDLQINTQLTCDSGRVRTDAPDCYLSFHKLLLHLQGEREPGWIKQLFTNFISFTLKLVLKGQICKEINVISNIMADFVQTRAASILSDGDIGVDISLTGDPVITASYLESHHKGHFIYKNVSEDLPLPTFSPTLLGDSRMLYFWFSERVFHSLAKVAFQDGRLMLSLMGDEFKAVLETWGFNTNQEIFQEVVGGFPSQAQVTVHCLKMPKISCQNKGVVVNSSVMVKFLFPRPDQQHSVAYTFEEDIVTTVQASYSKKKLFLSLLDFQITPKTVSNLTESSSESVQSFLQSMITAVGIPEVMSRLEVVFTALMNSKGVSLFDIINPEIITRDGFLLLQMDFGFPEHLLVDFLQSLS
pIC50: −log10 of the molar value.

compound: COc1c([C@@H](O)CC(C)C)ccc2c1C(=O)Oc1c(Cl)c(C)c(Br)c(OC(=O)C3(C)C4CCC3CC4)c1O2 (some centres undefined)
measurement.qualifier: =
pIC50: 7.22
//
compound: COc1c(C(O)CC2CCCCC2)ccc2c1C(=O)Oc1cc(C)cc(OCCC(C)C)c1O2 (racemic)
measurement.qualifier: <
pIC50: 4.70
//
compound: CCN(CC)C(=O)Oc1cc(C)cc2c1Oc1ccc([C@@H](O)CC(C)C)c(OC)c1C(=O)O2
measurement.qualifier: =
pIC50: 5.52
//
compound: COc1c([C@@H](O)CC(C)C)ccc2c1C(=O)Oc1cc(C)cc(O)c1O2
measurement.qualifier: <
pIC50: 4.70
